Measured values drawn from patent US7910739B2 for this set.

Form field: log10(IC50) (one value per entry).
# tgt: AChE (from bovine erythrocytes) (Bos taurus, UniProt P23795)
# Construct: 0.02 unit AChE (Sigma Chemical Co. from bovine erythrocytes); purchased Sigma Chemical Co; host or cells: bovine erythrocytes (natural source)
# Sequence (P23795 other isoform, or with tags, fused parts or gaps): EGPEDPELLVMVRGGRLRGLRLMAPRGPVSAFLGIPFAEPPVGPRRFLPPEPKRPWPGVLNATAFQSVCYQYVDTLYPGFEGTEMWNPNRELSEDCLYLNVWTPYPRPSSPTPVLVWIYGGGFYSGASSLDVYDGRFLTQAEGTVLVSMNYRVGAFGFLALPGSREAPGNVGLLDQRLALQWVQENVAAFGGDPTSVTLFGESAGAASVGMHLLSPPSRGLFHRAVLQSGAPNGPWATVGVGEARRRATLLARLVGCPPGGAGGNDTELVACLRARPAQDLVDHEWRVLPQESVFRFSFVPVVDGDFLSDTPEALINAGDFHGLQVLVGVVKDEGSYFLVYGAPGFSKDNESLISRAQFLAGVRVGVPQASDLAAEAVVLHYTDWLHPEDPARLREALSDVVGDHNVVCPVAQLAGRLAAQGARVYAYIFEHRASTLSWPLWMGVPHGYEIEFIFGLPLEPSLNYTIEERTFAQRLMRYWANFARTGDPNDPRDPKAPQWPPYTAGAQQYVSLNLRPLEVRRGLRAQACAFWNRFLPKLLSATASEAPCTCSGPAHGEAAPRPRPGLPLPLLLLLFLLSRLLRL
# assay_notes: biochemical
# Type: biochemical
# condition_description: AChE from bovine erythrocytes, 30° C., pH 8; read-out: IC50 AChE
Note: values are log10 of IC50 expressed in nM.

O=C(CCc1c[nH]c2ccccc12)NCCCCCCCCCCNc1c2c(nc3cc(Cl)ccc13)CCCC2 [Compound 7] ... 1.34
O=C(NCCCCCCNc1c2c(nc3cc(Cl)ccc13)CCCC2)OCCc1c[nH]c2ccccc12 [Compound 24] ... -0.15
O=C(NCCCCCCCNc1c2c(nc3cc(Cl)ccc13)CCCC2)c1c[nH]c2ccccc12 [Compound 12] ... 1.56
O=C(CCc1c[nH]c2ccccc12)NCCCCCCCNc1c2c(nc3cc(Cl)ccc13)CCCC2 [Compound 4] ... -1.22
O=C(CCc1c[nH]c2ccccc12)NCCCCCNc1c2c(nc3ccccc13)CCCC2 [Compound 2] ... 1.85
O=C(NCCCCCNc1c2c(nc3cc(Cl)ccc13)CCCC2)c1c[nH]c2ccccc12 [Compound 10] ... 2.26

We next turn to a different compound, shown below.
Prompt: Item Clc1ccc2c(NCCc3c[nH]c4ccccc34)c3c(nc2c1)CCCC3 [Comparative Example, N-[2-3(Indolyl)ethyl]-6-chlorotacrine, reference compound] with AChE (from bovine erythrocytes) (Bos taurus, UniProt P23795) - log10(IC50)?
Response: 2.73
